Reference source for all entries: PubChem BioAssay AID330

I'd be grateful if you could share measured T/C for these entries.
test system: P388 leukemia ip, CD2F1 mice, survival T/C; assay: NCI In Vivo Anticancer Drug Screen. Data for tumor model P388 Leukemia (intraperitoneal) in CD2F1 (CDF1) mice; conditions: endpoint: median survival time; dose: 100.0 mg/kg/injection; schedule: Q01DX005 (ip); vehicle: saline with Tween-80; higher = longer survival
Toxic doses and inconclusive results are not listed.

Would you kindly share the measured T/C for `Oc1ccc2ccccc2c1/C=N/N=c1\[nH][nH]/c(=N\N=C\c2c(O)ccc3ccccc23)c2ccccc12` ?
97 % of control

Can you look up the measured T/C of `O=C1Nc2ccccc2/C1=N/N(c1ccccc1)c1ccccc1` for me?
101 % of control

Fill in: T/C of `O=C(Cn1ccnc1)Nc1ccc(Cl)cc1C(=O)c1ccccc1` is ___
92 % of control

Which T/C value belongs to C=CC1CCCCC1=O (stereo unspecified) ?
111 % of control

Any idea what T/C was measured for CCCCN(CCCC)CC(O)c1ccc(F)c2ccccc12 (stereo unspecified) ?
97 % of control

Bench note: what T/C did CCCCNC(=O)c1cc(NC(=O)c2ccc(C(=O)Nc3cc(C(=O)NCCCC)cc(C4N=CCN4)c3)cc2)cc(C2=NCCN2)c1 (stereo unspecified) show?
95 % of control

* * *

For each of the molecules below, state its T/C.
tested on: P388 leukemia ip, CD2F1 mice, survival T/C; experiment: NCI In Vivo Anticancer Drug Screen. Data for tumor model P388 Leukemia (intraperitoneal) in CD2F1 (CDF1) mice; conditions: endpoint: median survival time; dose: 25.0 mg/kg/injection; schedule: Q01DX009 (ip); vehicle: saline with Tween-80; higher = longer survival
Inconclusive results and toxic doses are left out.

Record request: T/C value, item `Cc1ccc(S(=O)(=O)OCC(C)(C)COS(=O)(=O)c2ccc(C)cc2)cc1`
106 % of control

Form field: reported T/C of `COC(=O)CCCc1ccc(OC)c(OC)c1`
92 % of control

Name the reported T/C value associated with the molecule `CONC(=O)Cc1cccc(OC)c1`
104 % of control

For the molecule shown here, `O=C1c2ccccc2C(Cl)=C(Cl)C1(Cl)Cl` , give the reported T/C.
90 % of control

Given CCC(N)Cc1cc(OC)c(C)cc1OC (stereo unspecified) , state its recorded T/C.
90 % of control

// returns reported T/C for input `CCCC(O)(CCC)/C(C)=N/O`
107 % of control

* * *

test system: P388 leukemia ip, CD2F1 mice, survival T/C; assay: NCI In Vivo Anticancer Drug Screen. Data for tumor model P388 Leukemia (intraperitoneal) in CD2F1 (CDF1) mice; settings: endpoint: median survival time; dose: 50.0 mg/kg/injection; schedule: Q01DX005 (ip); vehicle: Klucel (hydroxypropylcellulose) (HPC); higher = longer survival
Toxic doses and inconclusive results are not listed. Square brackets hold non-standard residues; d marks the D form. Peptide text beside a SMILES is read from it. * marks the point of attachment. Cbz = O=C(OCc1ccccc1)*; Nva = CCC[CH](N)C(=O)O
Would you kindly list T/C for each of these compounds?

# input compound: `N[C@H]1CN([C@@H](C(=O)O)c2ccc(O)cc2)C1=O` ; wanted: its T/C
105 % of control

Quick one: T/C for CSc1nc(Cl)c2ncn(C3C=CC(OC(C)=O)CO3)c2n1 (stereo unspecified) ?
103 % of control

Quick check: T/C of `O=C(Nc1ccc(Nc2ccc3c(c2)C(=O)c2ccccc2C3=O)c2c1C(=O)c1ccccc1C2=O)c1ccccc1` ?
92 % of control

What does the data say about its T/C? Entry: CCCC(NC(=O)OCc1ccccc1)C(=O)NC(CC(C)C)C(=O)O (stereo unspecified) (Cbz-[Nva]-Leu-OH; configuration not given here)
112 % of control

Would you kindly share the measured T/C for `[Cl][Ge]([c]1ccccc1)[c]1ccccc1.c1cc[c]([GeH][c]2ccccc2)cc1` ?
93 % of control

So what's the measured T/C for this one? `CCN(CC)C(=Nc1ccc(NC(=O)c2ccc(C(=O)Nc3ccc(N=C(c4ccccc4)N(CC)CC)cc3)cc2)cc1)c1ccccc1`
96 % of control

Would you kindly share the measured T/C for [N-]=[N+]=NP1(=O)OC(c2ccccc2)=CCN1c1ccccc1 (stereo unspecified) ?
105 % of control

T/C lookup needed for `Cc1nc2c(cnn2CN2CCCCC2)c(=O)n1-c1ccccc1` , thanks.
100 % of control

Bench note: what T/C did `O=C(OCCS(=O)(=O)CCOC(=O)ON1C(=O)CCC1=O)ON1C(=O)CCC1=O` show?
109 % of control

May I ask what T/C has been recorded for `CN1C(=O)CC(=O)N(c2ccccc2)c2cc(Cl)ccc21` ?
103 % of control

Request the reported T/C associated with `N#CNC(=S)SCC(N)=O`
100 % of control

Data request, read-out T/C, for `C=C(Br)C(=NC(C)(C)C)Nc1ccccc1Cl`
118 % of control

Look up T/C for this compound: COC(=O)C1C2CC3c4c(c5ccc(OC)cc5n4[N+](=O)[O-])CCN3CC2CC(OC(=O)c2cc(OC)c(OC)c(OC)c2)C1OC (stereo unspecified)
104 % of control

What does the record list as T/C for CC(C)(C)OC(=O)NC(Cc1c[nH]c2ccccc12)C(=O)O (stereo unspecified) ?
102 % of control

Given the entry CC(Cc1cccc2ccccc12)C(N)=O (stereo unspecified) , report its measured T/C.
100 % of control

Which value of T/C has been reported for COc1ccc(C2CN(C(=O)c3ccccc3)N=C(c3ccccc3)O2)cc1 (stereo unspecified) in the records?
100 % of control

Query: T/C; subject: `COC(=O)c1nnn(-c2ccccc2)n1`
101 % of control

Query (compound): O=C(NC(CO)C(=O)NC(Cc1ccc(O)cc1)C(=O)O)OCc1ccccc1 (stereo not drawn) (Cbz-Ser-Tyr-OH; configuration not given here) ; field requested: T/C
98 % of control

Quick one: T/C for `O=S(=O)(F)C(Br)(Br)S(=O)(=O)F` ?
97 % of control

// lookup T/C for CC(NC(=O)C(c1ccccc1)c1ccccc1)C(=O)O (stereo unspecified)
97 % of control

# lookup: T/C of `O=C1Oc2ccccc2C(=O)C1=S1CCCC1`
98 % of control
